Examples of compounds with documented MIC follow.
System: Staphylococcus aureus
Assay: Antibacterial activity against Staphylococcus aureus assessed as bacterial growth inhibition
Assay type: functional
Residues, ends and D or L forms follow the SMILES beside them. *: point of attachment. βGlc = OC[C@H]1O[C@@H](*)[C@H](O)[C@@H](O)[C@@H]1O; βGal = OC[C@H]1O[C@@H](*)[C@H](O)[C@@H](O)[C@H]1O; Palmitoyl = CCCCCCCCCCCCCCCC(=O)*; Lauroyl = CCCCCCCCCCCC(=O)*; Octanoyl = CCCCCCCC(=O)*

- COMPOUND: "CC[C@H](C)[C@H](NC(=O)CN)C(=O)N[C@H](C(=O)N[C@@H](CCCCN)C(=O)N[C@@H](CCCCN)C(=O)N[C@H](C(=O)N[C@H](C(=O)N[C@@H](CCCCN)C(=O)N[C@@H](CCCCN)C(=O)N[C@H](C(=O)N[C@H](C(=O)N[C@@H](CCCCN)C(=O)N[C@@H](CCCCN)C(=O)N[C@H](C(=O)N[C@@H](CO[C@@H]1O[C@H](CO)[C@@H](O)[C@H](O)[C@H]1O)C(N)=O)[C@@H](C)CC)[C@@H](C)CC)[C@@H](C)CC)[C@@H](C)CC)[C@@H](C)CC)[C@@H](C)CC (H-GIIKKIIKKIIKKIS(βGlc)-NH2)"
  MIC (µM): 16
- COMPOUND: "CCCCCCCCCCCC(=O)NCC(=O)N[C@H](C(=O)N[C@H](C(=O)N[C@@H](CCCCN)C(=O)N[C@@H](CCCCN)C(=O)N[C@H](C(=O)N[C@H](C(=O)N[C@@H](CCCCN)C(=O)N[C@@H](CCCCN)C(=O)N[C@H](C(=O)N[C@H](C(=O)N[C@@H](CCCCN)C(=O)N[C@@H](CCCCN)C(=O)N[C@H](C(N)=O)[C@@H](C)CC)[C@@H](C)CC)[C@@H](C)CC)[C@@H](C)CC)[C@@H](C)CC)[C@@H](C)CC)[C@@H](C)CC (Lauroyl-GIIKKIIKKIIKKI-NH2)"
  MIC (µM): 4
- COMPOUND: "CCCCCCCC(=O)NCC(=O)N[C@H](C(=O)N[C@H](C(=O)N[C@@H](CCCCN)C(=O)N[C@@H](CCCCN)C(=O)N[C@H](C(=O)N[C@H](C(=O)N[C@@H](CCCCN)C(=O)N[C@@H](CCCCN)C(=O)N[C@H](C(=O)N[C@@H](CO[C@@H]1O[C@H](CO)[C@H](O)[C@H](O)[C@H]1O)C(N)=O)[C@@H](C)CC)[C@@H](C)CC)[C@@H](C)CC)[C@@H](C)CC)[C@@H](C)CC (Octanoyl-GIIKKIIKKIS(βGal)-NH2)"
  MIC (µM): 4
- COMPOUND: "CC[C@H](C)[C@H](NC(=O)CN)C(=O)N[C@H](C(=O)N[C@@H](CCCCN)C(=O)N[C@@H](CCCCN)C(=O)N[C@H](C(=O)N[C@H](C(=O)N[C@@H](CCCCN)C(=O)N[C@@H](CCCCN)C(=O)N[C@H](C(=O)N[C@H](C(=O)N[C@@H](CCCCN)C(=O)N[C@@H](CCCCN)C(=O)N[C@H](C(=O)N[C@@H](CO[C@@H]1O[C@H](CO)[C@H](O)[C@H](O)[C@H]1O)C(N)=O)[C@@H](C)CC)[C@@H](C)CC)[C@@H](C)CC)[C@@H](C)CC)[C@@H](C)CC)[C@@H](C)CC (H-GIIKKIIKKIIKKIS(βGal)-NH2)"
  MIC (µM): 16
- COMPOUND: "CCCCCCCC(=O)NCC(=O)N[C@H](C(=O)N[C@H](C(=O)N[C@@H](CCCCN)C(=O)N[C@@H](CCCCN)C(=O)N[C@H](C(=O)N[C@H](C(=O)N[C@@H](CCCCN)C(=O)N[C@@H](CCCCN)C(=O)N[C@H](C(=O)N[C@H](C(=O)N[C@@H](CCCCN)C(=O)N[C@@H](CCCCN)C(=O)N[C@H](C(=O)N[C@@H](CO[C@@H]1O[C@H](CO)[C@H](O)[C@H](O)[C@H]1O)C(N)=O)[C@@H](C)CC)[C@@H](C)CC)[C@@H](C)CC)[C@@H](C)CC)[C@@H](C)CC)[C@@H](C)CC)[C@@H](C)CC (Octanoyl-GIIKKIIKKIIKKIS(βGal)-NH2)"
  MIC (µM): 4
- COMPOUND: "CCCCCCCCCCCCCCCC(=O)NCC(=O)N[C@H](C(=O)N[C@H](C(=O)N[C@@H](CCCCN)C(=O)N[C@@H](CCCCN)C(=O)N[C@H](C(=O)N[C@H](C(=O)N[C@@H](CCCCN)C(=O)N[C@@H](CCCCN)C(=O)N[C@H](C(=O)N[C@H](C(=O)N[C@@H](CCCCN)C(=O)N[C@@H](CCCCN)C(=O)N[C@H](C(N)=O)[C@@H](C)CC)[C@@H](C)CC)[C@@H](C)CC)[C@@H](C)CC)[C@@H](C)CC)[C@@H](C)CC)[C@@H](C)CC (Palmitoyl-GIIKKIIKKIIKKI-NH2)"
  MIC (µM): 16
